These data points were gathered from the METLIN SMRT retention time set (Domingo-Almenara et al. 2019).

Could you please report measured RP-LC retention time for the items listed next?
measurement protocol: gradient 5% acetonitrile 3 min, to 50% in 2 min, to 85% in 15 min, held 3 min, 100 µL/min
condition info: column: Zorbax Extend-C18 2.1 x 50 mm; eluents: water / acetonitrile, 0.1% formic acid
Give bare numbers, in s.

Ask: Given NP(=O)(Oc1c2occc2cc2ccc(=O)oc12)N(CCCl)CCCl (stereo not given) , respond with its RP-LC retention time.
Result: 738

For every item in the list below, what is its measured RP-LC retention time?
1. Cc1nc(CNC(=O)[C@H]2CCCN2S(=O)(=O)c2ccc(Br)cc2)cs1
2. Cc1c(-c2ccnc(N3CCOCC3)n2)cnc2nc(-c3ccc(Cl)cc3)nn12
3. Cc1ccc2c(c1)C(c1ccccc1)NCC(=O)N2 (stereo not given)

Result:
[794, 1030, 544]

For every item in the list below, what is its measured RP-LC retention time?
1. COc1ccc(CNC(=O)c2cc3c(s2)CCN(C(C)=O)C3)cc1
2. CCOCCCNC(=O)c1c(N)n(-c2ccc(C(C)=O)cc2)c2nc3ccccc3nc12
3. Cn1c(=O)c2c(ncn2CC2OCCO2)n(C)c1=O
4. CCc1nc(-c2cccc(-c3noc(COc4ccc(OC)cc4)n3)c2)cs1
5. Cc1ccc(-c2ccc(N3CCCC(C(=O)NCCCN4CCOCC4)C3)nn2)cc1 (stereo not given)

Result:
1. 696
2. 876
3. 606
4. 1270
5. 571

Ask: Given CCOC(=O)CNC(=O)NCCn1c(C(F)(F)F)nc2ccccc21 , respond with its RP-LC retention time.
Result: 686

---

Could you please report measured RP-LC retention time for the items listed next?
measurement protocol: gradient 5% acetonitrile 3 min, to 50% in 2 min, to 85% in 15 min, held 3 min, 100 µL/min
condition info: column: Zorbax Extend-C18 2.1 x 50 mm; eluents: water / acetonitrile, 0.1% formic acid
Numbers only, in s.

Check out these entries, answers already filled in.
Ask: Given COc1ccc(NC(=O)C2(C)Oc3cccnc3N(C(C)C)C2=O)c(OC)c1 (centres undefined) , respond with its RP-LC retention time.
Result: 1010

Ask: Given CC(NC(=O)c1ccc2nc(-c3ccc(Cl)cc3)cn2c1)c1cccnc1 (centres undefined) , respond with its RP-LC retention time.
Result: 603

Ask: Given CCOC(=O)CCNC(=O)C1CCCN(c2nccnc2Oc2ccc(C)cc2)C1 (centres undefined) , respond with its RP-LC retention time.
Result: 884

Ask: Given CCN(CCNC(=O)C12CCCC=C1N(Cc1ccccc1)C(=O)CC2)Cc1ccccc1 (centres undefined) , respond with its RP-LC retention time.
Result: 603

Ask: Given Cn1nc(-c2cccc(NC(=O)C3c4ccccc4Oc4ccccc43)c2)ccc1=O , respond with its RP-LC retention time.
Result: 814

Ask: Given CCOc1ccc(C2NC(=O)NC(C)=C2C(=O)OC2CCCC2)cc1OC (centres undefined) , respond with its RP-LC retention time.
Result: 770

Ask: Given CSc1ccc(C2C(C(=O)N3CCOCC3)=C(C)NC3=C2C(=O)CC(C)(C)C3)cc1 (centres undefined) , respond with its RP-LC retention time.
Result: 696

Ask: Given CCn1ncc(NC(=O)COc2ccc(F)cc2)c(N2CCCCC2)c1=O , respond with its RP-LC retention time.
Result: 793

Ask: Given NC(=O)c1cccc(Nc2c(-c3ccc(Cl)cc3)nc3cnccn23)c1 , respond with its RP-LC retention time.
Result: 685

Ask: Given O=C(c1ccc2cc[nH]c2c1)N1CCCN(c2cc(-c3ccc(Cl)cc3)[nH]n2)CC1 , respond with its RP-LC retention time.
Result: 770

For every item in the list below, what is its measured RP-LC retention time?
1. O=C(NCc1cccnc1)C(CCO)Sc1nc2sc3c(c2c(=O)[nH]1)CCCC3 (centres undefined)
2. C=CCn1c(SCC(=O)c2cc(C)n(CCOC)c2C)nc2sc(C)c(C)c2c1=O
3. CC(C)n1nc(CNC(=O)C2CCC2)c2ccccc21

Result:
544
1140
812
